From: ChEMBL document CHEMBL3576760

- test-method-notes: Displacement of [3H]DALKD from bradykinin receptor in rat brain membrane at pH 6.8 by competition assay
- Type: cell membranes
- cond: read-out: IC50
Residues, ends and D or L forms follow the SMILES beside them.
Measured IC50 values are reported for all entries that follow.
reported-metric: IC50 (nM)

[[record]]
compound = "CC(C)C[C@H](NC(=O)[C@H](CCCNC(=N)N)NC(=O)[C@H](CC(C)C)NC(=O)[C@@H](N)Cc1ccccc1)C(=O)N[C@@H](CCCNC(=N)N)C(=O)N1CCC[C@H]1C(=O)N[C@@H](CCCNC(=N)N)C(=O)O (H-FLRLRPR-OH)"
units = "nM"
value = 100

[[record]]
compound = "CC(C)C[C@H](NC(=O)[C@H](CCCCN)NC(=O)[C@@H]1CCCN1C(=O)[C@@H](N)CCCNC(=N)N)C(=O)N[C@@H](CCCCN)C(=O)O"
units = "nM"
value = 58

[[record]]
compound = "CC[C@H](C)[C@H](NC(=O)[C@H](CCCNC(=N)N)NC(=O)[C@@H]1CCCN1C(=O)[C@@H](N)CCCCN)C(=O)N[C@@H](CCCNC(=N)N)C(=O)N[C@@H](CC(C)C)C(=O)N[C@@H](Cc1ccccc1)C(=O)O (H-KPRIRLF-OH)"
units = "nM"
value = 50


====

- test-method-notes: Displacement of [3H]DALKD from bradykinin receptor in rat brain membrane at pH 7.4 by competition assay
- Type: cell membranes
pIC50: −log10 of the molar value. Non-standard residues stand in square brackets, D forms with d. Residues, ends and D or L forms follow the SMILES beside them. ξ: configuration not given here. Phe(4-NH2) = Nc1ccc(C[C@H](N)C(=O)O)cc1; ξNle = CCCCC(N)C(=O)O
reported-metric: pIC50

[[record]]
compound = "CC(C)C[C@H](NC(=O)[C@H](Cc1ccccc1)NC(=O)CN)C(=O)N[C@@H](CCCNC(=N)N)C(=O)O (H-GFLR-OH)"
reported_metric = "pIC50"
value = 6.02

[[record]]
compound = "CC[C@H](C)[C@H](NC(=O)[C@H](CCCNC(=N)N)NC(=O)[C@H](CCCNC(=N)N)NC(=O)[C@H](CC(C)C)NC(=O)[C@@H](N)Cc1ccccc1)C(=O)O (H-FLRRI-OH)"
reported_metric = "pIC50"
value = 5.32

[[record]]
compound = "CCCCC(N)C(=O)N[C@@H](CCCCN)C(=O)NC(CCCC)C(=O)N[C@@H](CCCCN)C(=O)O (some centres not stated) (H-[ξNle]K[ξNle]K-OH)"
reported_metric = "pIC50"
value = 6.96

[[record]]
compound = "CCCCC(NC(=O)[C@H](CCCCN)NC(=O)[C@@H]1CCCN1)C(=O)N[C@@H](CCCCN)C(=O)O (some centres not stated) (H-PK[ξNle]K-OH)"
reported_metric = "pIC50"
value = 7.15

[[record]]
compound = "CC[C@H](C)[C@H](NC(=O)[C@H](CCCNC(=N)N)NC(=O)[C@H](CCCNC(=N)N)NC(=O)[C@H](CC(C)C)NC(=O)[C@H](Cc1ccccc1)NC(=O)CN)C(=O)O (H-GFLRRI-OH)"
reported_metric = "pIC50"
value = 5.64

[[record]]
compound = "CC(C)C[C@H](NC(=O)[C@H](CCCCN)NC(=O)[C@@H](N)Cc1ccccc1)C(=O)N[C@@H](CCCCN)C(=O)O (H-FKLK-OH)"
reported_metric = "pIC50"
value = 6.46

[[record]]
compound = "CC(C)C[C@H](NC(=O)[C@H](CCCCN)NC(=O)[C@@H](N)Cc1ccc(N)cc1)C(=O)N[C@@H](CCCCN)C(=O)O (H-[Phe(4-NH2)]KLK-OH)"
reported_metric = "pIC50"
value = 6.35

